Recorded pIC50 values for a group of compounds are listed next.
Target: KRas G12D (Homo sapiens (Human), UniProt P01116, G12D)
Sequence (P01116 other isoform, or with tags, fused parts or gaps G12D): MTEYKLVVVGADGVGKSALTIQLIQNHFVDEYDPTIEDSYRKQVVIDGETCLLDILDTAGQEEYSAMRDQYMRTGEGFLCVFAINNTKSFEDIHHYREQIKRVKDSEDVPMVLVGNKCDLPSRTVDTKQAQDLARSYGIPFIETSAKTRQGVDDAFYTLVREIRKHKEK
Experiment: KRas G12D Binding Assay (TR-FRET displacement of Cy5 labelled tracer)
Conditions: GDP-loaded KRAS G12D (amino acids 1:169), 60 minute incubation at 22° C.
Description: After a 60 minute incubation at 22° C., the reaction was measured using a PerkinElmer EnVision multimode plate reader via TR-FRET dual wavelength detection, and the percent of control (POC) calculated using a ratiometric emission factor. […] The POC values were fit to a 4-parameter logistic curve and the IC50 value was determined as the concentration where the curve crosses 50 POC. ND stands for “not determined.”
pIC50: −log10 of the molar value. Structures can show the parent of a compound that is named as a salt.
measured_endpoint: pIC50

[[record]]
compound = "Cn1ccnc1CCOc1nc(N2C[C@H]3C[C@@H](O)[C@@H](C2)N3)c2cnc(-c3cccc4cccc(Cl)c34)c(F)c2n1"
measured_endpoint = "pIC50"
endpoint_value = 7.00

[[record]]
compound = "Oc1cccc(-c2ncc3c(N4C[C@H]5CC[C@@H](C4)N5)nc(OCC45CCCN4CCC5)nc3c2F)c1"
measured_endpoint = "pIC50"
endpoint_value = 5.79

[[record]]
compound = "CO[C@@H]1CN2CCC[C@]2(COc2nc(N3C[C@H]4CC[C@@H](C3)N4)c3cnc(-c4cccc5cccc(Cl)c45)c(F)c3n2)C1 [Example 219, bis-hydrochloride]"
measured_endpoint = "pIC50"
endpoint_value = 8.09

[[record]]
compound = "Cc1ccc2c(-c3ncc4c(N5C[C@H]6CC[C@@H](C5)N6)nc(OC[C@@H]5CCCN5C)nc4c3F)cccc2c1"
measured_endpoint = "pIC50"
endpoint_value = 5.31

[[record]]
compound = "CCc1cccc2cccc(-c3ncc4c(N5C[C@H]6CC[C@@H](C5)N6)nc(OC[C@@]56CCCN5C[C@H](F)C6)nc4c3F)c12"
measured_endpoint = "pIC50"
endpoint_value = 12.00

[[record]]
compound = "O=C(NCCOc1nc(N2C[C@H]3CC[C@@H](C2)N3)c2cnc(-c3cc(O)cc4ccccc34)c(F)c2n1)c1ccc(S(=O)(=O)F)cc1 [Example 212, bis(2,2,2-trifluoroacetate)]"
measured_endpoint = "pIC50"
endpoint_value = 5.91

[[record]]
compound = "Fc1c(-c2cccc3cccc(F)c23)ncc2c(N3C[C@H]4CC[C@@H](C3)N4)nc(OCC34CCCN3CCC4)nc12"
measured_endpoint = "pIC50"
endpoint_value = 8.23

[[record]]
compound = "CN1CCC[C@H]1COc1nc(N2C[C@H]3CC[C@@H](C2)N3)c2cnc(-c3cncc4cccc(Cl)c34)c(F)c2n1"
measured_endpoint = "pIC50"
endpoint_value = 6.41

[[record]]
compound = "CCc1c(F)ccc2cc(O)cc(-c3ncc4c(N5C[C@H]6CC[C@@H](C5)N6)nc(OCC56CCCN5CCC6)nc4c3F)c12"
measured_endpoint = "pIC50"
endpoint_value = 9.22

[[record]]
compound = "Oc1cc(-c2ncc3c(N4C[C@H]5CC[C@@H](C4)N5)nc(OCc4ccccn4)nc3c2F)c2ccccc2c1"
measured_endpoint = "pIC50"
endpoint_value = 6.17

[[record]]
compound = "Oc1cc(-c2ncc3c(N4CC5CCC(C4)N5)nc(OCC45CCCCN4CCC5)nc3c2F)c2ccccc2c1 (centres unmarked)"
measured_endpoint = "pIC50"
endpoint_value = 10.92

